tested on: PC-3 prostate; assay: NCI tumour cell line growth inhibition, 48 h
assay_metric: TGI

compound	assay_metric	result
COc1cc2c(cc1Nc1nc(N3CCc4ccccc43)c3cc[nH]c3n1)N(C(=O)CN(C)C)CC2	TGI	6.43 µM
CCOC(=O)/C=C/c1nc(C#N)c(N)o1	TGI	> 100 µM
O=C1NN(C2=NNC3(C(=O)N2)c2ccccc2-c2ccccc23)C(c2ccccc2)=N/C1=C/c1ccc(Cl)cc1	TGI	> 150 µg/mL
O=C(/C=C/C12c3ccccc3C(c3ccccc31)C1C(=O)NC(=O)C12)c1ccccn1 (stereo not drawn)	TGI	4.46 µM
O=C(CC(NC(=O)C(F)(F)F)C(=O)O)OCc1ccccc1 (stereo not drawn)	TGI	> 100 µM
C[C@]12CC[C@H]3[C@@H](CCC4=CC(=O)CC[C@@]43C)[C@@H]1CC[C@@H]2c1csc(N)n1	TGI	47.1 µM
COc1ccc2c(N)ncc(C#Cc3cc(C(=O)Nc4ccc(CN5CCN(C)CC5)c(C(F)(F)F)c4)cnc3C)c2c1	TGI	3.56 µM
O=C(Nc1ccc(N=C=S)cc1Cl)c1cc(Br)cc(Br)c1O	TGI	54.5 µM
Cc1cccc(NC(=O)c2sc3nc4c(cc3c2N)C(=O)CCC4)c1	TGI	> 48.1 µM
CCn1cc(C(=O)O)c(=O)c2cc(F)c(N3CCN(S(=O)(=O)c4cccc5ccccc45)CC3)cc21	TGI	> 100 µM
COC(=O)/C=C(/C=C1/C(C#N)=C(N)N(c2ccc(Cl)cc2)C1(C)/C(=C\C(=O)OC)C(=O)OC)C(=O)OC (stereo not drawn)	TGI	35 µM
CC(Br)C(=O)NC(CO)C(=O)O (stereo not drawn)	TGI	> 100 µM
COC(=O)CNC(=O)C(CSC(=O)OCC1c2ccccc2-c2ccccc21)NC(=O)CCC(NC(=O)OCC1c2ccccc2-c2ccccc21)C(=O)OC (stereo not drawn)	TGI	> 100 µM
Nc1ncnc2c1N=C(c1ccc3c(c1)OCO3)CC(c1ccc(Cl)cc1)N2 (stereo not drawn)	TGI	22.1 µM
Nc1ncnc2c1nnn2C1C=CC(CP(=O)(O)O)C1 (stereo not drawn)	TGI	> 100 µM
CCN(C)c1nc(N(C)CC)c2nc(N(C)CC)nc(N(C)CC)c2n1	TGI	> 100 µM
CC(=O)c1ccc(Oc2c3ccccc3nc3ccccc23)cc1	TGI	20.3 µM
OC1(c2ccc(Cl)c(C(F)(F)F)c2)CCN(CCCC(c2ccc(F)cc2)c2ccc(F)cc2)CC1	TGI	2.1 µM
CC(=O)O[C@H]1C(=O)[C@@]2(C)C([C@H](OC(=O)c3ccccc3)[C@]3(O)C[C@H](OC(=O)[C@H](O)[C@@H](NC(=O)c4ccccc4)c4ccccc4)C(C)=C1C3(C)C)[C@]1(OC(C)=O)CO[C@@H]1C[C@@H]2O (stereo partly drawn)	TGI	> 50 µM
Nc1nc2c(c3cnccc13)C(c1ccc(Cl)c(Cl)c1)Cc1cnccc1-2 (stereo not drawn)	TGI	12.8 µM
Cn1nccc1Nc1nccc(-c2ccn([C@H](CO)c3ccc(Cl)c(F)c3)c(=O)c2)n1	TGI	> 100 µM
N#CC1(c2ccc(NC(=O)c3cccnc3NCc3ccncc3)cc2)CCCC1	TGI	> 64.3 µM
Cc1nn(-c2ccc(Cl)cc2)c2ncnc(N/N=C/c3ccccc3O)c12	TGI	> 100 µM
CCOC(=O)CSc1nc(N)c2c(-c3ccccc3)c3c(nc2n1)CCCC3	TGI	> 100 µM
S=C(Cc1ccc2c(c1)Sc1ccccc1O2)N1CCOCC1	TGI	> 100 µM
O=C(NCCNCCO)c1ccc2c(c1)oc1cc3ccccc3c(=O)n12	TGI	> 50 µM
Nc1ncc(Cc2ccc3c(c2)OCO3)c(N)n1	TGI	> 100 µM
O=C1NC(=N[C@@H](CO)c2ccccc2)S/C1=C\c1ccc2ncccc2c1	TGI	> 25 µM

----------
Listed compounds paired with reported GI50
test system: T-47D breast; experiment: NCI tumour cell line growth inhibition, 48 h

compound	GI50
Nc1ncnc2c1N=C(c1ccc3c(c1)OCO3)CC(c1ccc(Cl)cc1)N2 (stereo not given)	20.9 µM
COc1cc2c(N3CCN(C(=O)Nc4ccc(OC(C)C)cc4)CC3)ncnc2cc1OCCCN1CCCCC1	16.6 µM
N#CC1c2ccccc2C=CN1C(=O)CCCl (stereo not given)	3.65 µM
CC(C)(CO)CNC(=O)c1ccc2[nH]c(O)c(N=Nc3ccc(S(N)(=O)=O)cc3)c2c1	> 25 µM
Cc1ccc(O)cc1Nc1ccnc2ccc(S(C)(=O)=O)cc12	1.59 µM
CCN(CC)Cc1cc(Nc2nc(NC3CCC(N(C)C)CC3)c3ccccc3n2)ccc1OC (stereo not given)	5.4 µM
COc1ccc2sc3c(NCCCN)nc4ccccc4c3c(=O)c2c1	1.74 µM
CC(=O)ON1CCCC(P(=O)(OCOC(=O)C(C)(C)C)OCOC(=O)C(C)(C)C)C1=O (stereo not given)	0.435 µM
CCN=c1sc2c(n1NC(=O)c1cc3ccc1CCc1ccc(cc1)CC3)C(=O)c1ccccc1C2=O	0.706 µM
c1ccc(-c2[nH]ncc2-c2ccnc(-c3ccc(OCCn4ccnc4)cc3)c2)nc1	5.68 µM

----------
system: MOLT-4 leukemia; experiment: NCI tumour cell line growth inhibition, 48 h
Listed compounds paired with reported TGI

compound	TGI
O=C1NC(=O)c2c1n(Cc1ccccc1)c(=O)n2Cc1ccccc1	> 100 µM
Cc1ccccc1-c1nc2c(N)nc(N)nc2nc1N	> 100 µM
COc1cc2c(cc1Nc1nc(N3CCc4ccccc43)c3cc[nH]c3n1)N(C(=O)CN(C)C)CC2	4.79 µM
COc1ccc(N=Nc2c(-c3c(OC)cc4occc4c3OC)[nH]c(=O)c(C#N)c2C)cc1	> 100 µM
OCc1cn(Cc2ccccc2)c2ccccc12	> 100 µM
COc1cccc(C2c3cc4c(cc3OC(O)C2C)OCO4)c1OC (stereo not given)	18.5 µM
[N-]=[N+]=CC(=O)C1CCCN1C(=O)c1ccccc1 (stereo not given)	> 10 µM
N#Cc1c(-c2ccc([N+](=O)[O-])cc2)cc(-c2ccc(Nc3ccnc4cc(Cl)ccc34)cc2)[nH]c1=O	> 100 µM
O=c1c(F)cn2c(=O)n1CCCCCCCn1c(=O)c(F)cn(c1=O)CCCCCCC2	> 100 µM
CO/N=C1\CC(NC(=O)C(F)(F)F)c2ccsc21 (stereo not given)	> 100 µM
CC1=CC2C3(C)C(C)(C(C)=CP3(=O)c3c(C(C)C)cc(C(C)C)cc3C(C)C)C1P2(=O)c1c(C(C)C)cc(C(C)C)cc1C(C)C (stereo not given)	5.78 µM
Cc1ccc(S(=O)(=O)OCC/C(=C\[Si](C)(C)C)c2ccccc2)cc1	> 100 µM
N#CC(C(=O)C(=O)Nc1c(Cl)cccc1Cl)c1ccccc1 (stereo not given)	> 100 µM
CN(O)C(=O)/C=C/c1ccc(OCc2cccc(Cl)c2)cc1	39.6 µM
CCCCCCN(CCCCCC)C(=S)N/N=C(\C)c1ccccn1	5.79 µM
COC(=O)C1C(C(=O)OC)C2C(=O)C3C(C(=O)OC)C(C(=O)OC)C3C(=O)C12 (stereo not given)	> 100 µM
COc1ccc2nc(NC(=O)/C(C#N)=C/c3ccccc3)sc2c1	> 100 µM
O=c1cc(O)cc2n1CCC2	> 100 µM
O=C1NN(C2=NNC3(C(=O)N2)c2ccccc2-c2ccccc23)C(c2ccccc2)=N/C1=C/c1ccc(Cl)cc1	> 150 µg/mL
C[C@@H]1CC[C@@]2(C)C(C(=O)O)=CCCC2[C@@]1(C)CC(=O)c1ccoc1 (stereo not given in full)	> 25 µM
Nc1nc2c(c3cnccc13)C(c1ccc(Cl)c(Cl)c1)Cc1cnccc1-2 (stereo not given)	5.48 µM
Nc1ncc(Cc2ccc3c(c2)OCO3)c(N)n1	> 100 µM
c1c[nH]c(-c2cccc3nsnc23)c1	> 100 µM
S=C(Cc1ccc2c(c1)Sc1ccccc1O2)N1CCOCC1	> 100 µM
O=c1c2c3c(sc2[nH]c(=S)n1-c1ccccc1)CCCc1ccc([N+](=O)[O-])cc1-3	52 µM
O=C(/C=C/c1ccc(Cl)cc1)Oc1ccc(C=C2CCC/C(=C\c3ccc(OC(=O)/C=C/c4ccc(Cl)cc4)cc3)C2=O)cc1	> 100 µM
Cc1nc(N)c(N2CCN(C#N)CC2)c(=O)[nH]1	> 100 µM
O=[N+]([O-])c1ccccc1C1SCc2nc3ccccc3n21 (stereo not given)	> 100 µM
CCOC(=O)CSc1nc(N)c2c(-c3ccccc3)c3c(nc2n1)CCCC3	> 100 µM
Cn1nc(-c2ccc(S(=O)(=O)/N=C(\NN)Nc3ccc(Cl)cc3)s2)cc1C(F)(F)F	22.4 µM

----------
Listed compounds paired with reported TGI
test system: SK-OV-3 ovarian; test: NCI tumour cell line growth inhibition, 48 h
assay_metric: TGI

compound	result
C[C@]12Cc3cn[nH]c3C(=O)C1CC[C@@H]1C2CC[C@@]2(C)C1CC[C@@H]2O (stereo not given in full)	> 100 µM
CN(C)CCCC1(c2ccc(F)cc2)OCc2cc(-c3cccc4[nH]ccc34)ccc21 (stereo not given)	3.25 µM
O=c1c2ccccc2sc2c(CO)ccc(NCCN3CCCCC3)c12	16.3 µM
COCOc1ccc(C(=O)Oc2cccc3c2OC(C)(C)O3)c(OCOC)c1	> 100 µM
CCCCCCN(CCCCCC)C(=S)N/N=C(\C)c1ccccn1	2.77 µM
COC(=O)CNC(=O)C(CSC(=O)OCC1c2ccccc2-c2ccccc21)NC(=O)CCC(NC(=O)OCC1c2ccccc2-c2ccccc21)C(=O)OC (stereo not given)	74.6 µM
CCc1ccccc1NC(=O)c1cccc([N+](=O)[O-])c1O	> 100 µM
O=c1oc2ccccc2c(O)c1Cc1ccc(Cc2c(O)c3ccccc3oc2=O)cc1	> 100 µM
COC(=O)CCC(NC(=S)N/N=C/c1cccs1)C(=O)OC (stereo not given)	> 100 µM
CC1(C)N=C(N)N=C(N)N1c1ccc(CCC(=O)Nc2ccc(S(=O)(=O)F)cc2)cc1	> 100 µM
O=c1oc2ccc3ccccc3c2cc1-c1cn2ccsc2n1	> 100 µM
CC1=C(C(=O)Nc2ccccc2)C(c2ccc(N(C)C)cc2)C(C(=O)Nc2ccccc2)=C(C)N1	> 100 µM
O=C(CCc1cc(O)cc(O)c1)NCCc1cc(OCc2ccccc2)cc(OCc2ccccc2)c1	31.6 µM
CCN=c1sc2c(n1NC(=O)c1cc3ccc1CCc1ccc(cc1)CC3)C(=O)c1ccccc1C2=O	8.95 µM
O=C(c1ccco1)N(C(=O)N1CCCCC1)c1ccccc1	> 100 µM
O=C1c2cccc(Oc3ccccc3)c2C(=O)c2cccc(Oc3ccccc3)c21	> 100 µM
Cn1c2ccccc2c2ccc3c(c21)C(=O)c1ccc2c4ccccc4n(C)c2c1C3=O	> 100 µM
FC(F)(F)Oc1cccc(-c2cc(NCCCCCCNc3cc(-c4cccc(OC(F)(F)F)c4)nc4ccc(N5CCCC5)cc34)c3cc(N4CCCC4)ccc3n2)c1	3.36 µM
S=C(Cc1ccc2c(c1)Sc1ccccc1O2)N1CCOCC1	> 100 µM
CN(C)C(=O)C(F)(F)C(c1ccc(F)cc1)C1C(=O)N(C)C(=O)N(C)C1=O (stereo not given)	> 100 µM
COC(=O)C1C(C(=O)OC)C2C(=O)C3C(C(=O)OC)C(C(=O)OC)C3C(=O)C12 (stereo not given)	> 100 µM
O=C1NN(C2=NNC3(C(=O)N2)c2ccccc2-c2ccccc23)C(c2ccccc2)=N/C1=C/c1ccc(Cl)cc1	> 150 µg/mL
NS(=O)(=O)c1nnc(NC(=O)N(c2ccccc2)c2ccccc2)s1	> 100 µM
O=c1c(F)cn2c(=O)n1CCCCCCCn1c(=O)c(F)cn(c1=O)CCCCCCC2	> 100 µM
NCCN1CCCCCc2ccccc21	> 10 µM
